Molecular target: T1, human CD40L, membrane-bound on cells (human, UniProt P29965 1-261)
T1 sequence: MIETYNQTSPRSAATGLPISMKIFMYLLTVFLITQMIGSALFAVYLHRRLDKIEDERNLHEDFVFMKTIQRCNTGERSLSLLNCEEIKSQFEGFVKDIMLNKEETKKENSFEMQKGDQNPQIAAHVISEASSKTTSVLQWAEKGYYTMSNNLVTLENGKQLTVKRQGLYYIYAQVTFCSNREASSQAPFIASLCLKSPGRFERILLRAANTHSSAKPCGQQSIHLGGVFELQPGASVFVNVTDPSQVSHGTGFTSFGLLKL
Test: cell-based or functional assay
parameter measured: CHO-hCD40L-driven Human B Cell Proliferation EC50

binder="BMS2h-494-6 (other) VL: DIQMTQSPPSLSASVGDRVTITCRASQSIDKDLEWYQQKPGKAPRLLIYSSSWLQRGVPSRFSGSGSGTDFTLTISSLQPEDFATYHCQQYFQYPPTFGQGTKVEIKR" measurement="> 7 µM"
binder="BMS2h-503 (other) VL: DIQMTQSPSSLSASVGDRVTITCRASHHIQRYLSWYQQKPGKAPKLLILWGSQLQSGVPSRFSGSGSGTDFTLTISSLQPEDFATYYCGQWWAPPPTFGQGTKVEIKR" measurement="> 7 µM"
binder="BMS2h-572-14 (other) VH: EVQLLESGGGLVQPGGSLRLSCAASGFTFNWQLMGWVRQAPGKGLEWVSGIEGPGDVTYYADSVKGRFTISRDNTKNTLYLQMNSLRAEDTAVYYCVKVGKESNSDYRGQGTLVTVSS" measurement="> 7 µM"

# CHO-hCD40L-driven Human B Cell Proliferation EC50 of BMS2h-492-3 (other) VL: DIQMTQSPSSLSATVGDRVTITCRASQAIETNLEWYQQKPGKAPKLLIYDASMLQSGVPSRFSGSGSGTDFTLTISSLQPEDFATYYCQQYDAYPPTFGQGTKVEIKR = > 7 µM
